// provenance: patent US6794402B2

Where a name gives a salt, the structure may show the parent alone.
ASSAY READOUT: melting point

1) C=CCN(CCCc1ccc(F)cc1)[C@H]1CC[C@H](c2ccc3[nH]c(=O)oc3c2)CC1 (as salt: HCl) [Example 32] :: 224 to 230 °C
2) O=c1[nH]c2ccc([C@H]3CC[C@H](NCCSc4ccc(F)cc4)CC3)cc2o1 (as salt: HCl) [Example 8] :: 254 to 256 °C
3) CN(CCSc1ccc(F)cc1)[C@H]1CC[C@H](c2ccc3[nH]c(=O)oc3c2)CC1 (as salt: HCl) [Example 20] :: 213 to 217 °C
4) CC(C)CN(CCCc1ccc(F)cc1)[C@H]1CC[C@H](c2ccc3[nH]c(=O)oc3c2)CC1 (as salt: HCl) [Example 33] :: 199 to 201 °C
